ASSAY TARGET: h-GABA-A α5β3γ2 (Homo sapiens, UniProt P18507+P31644)
Construct: expressed in transfected cells; host or cells: Xenopus laevis oocytes, micro-injected with subunit RNA
Sequence (P31644 32-462): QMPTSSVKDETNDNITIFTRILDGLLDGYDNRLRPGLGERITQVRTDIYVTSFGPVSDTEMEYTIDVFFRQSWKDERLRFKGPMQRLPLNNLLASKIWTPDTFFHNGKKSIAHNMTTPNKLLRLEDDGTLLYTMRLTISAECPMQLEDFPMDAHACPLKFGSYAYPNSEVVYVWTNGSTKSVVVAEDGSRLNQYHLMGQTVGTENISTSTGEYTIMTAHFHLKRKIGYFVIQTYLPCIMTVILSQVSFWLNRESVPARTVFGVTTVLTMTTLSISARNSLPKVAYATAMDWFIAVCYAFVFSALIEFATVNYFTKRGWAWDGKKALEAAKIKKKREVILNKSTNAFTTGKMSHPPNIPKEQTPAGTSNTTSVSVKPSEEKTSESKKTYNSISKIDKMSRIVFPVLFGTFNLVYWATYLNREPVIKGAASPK
Sequence (P28472 26-473 partner): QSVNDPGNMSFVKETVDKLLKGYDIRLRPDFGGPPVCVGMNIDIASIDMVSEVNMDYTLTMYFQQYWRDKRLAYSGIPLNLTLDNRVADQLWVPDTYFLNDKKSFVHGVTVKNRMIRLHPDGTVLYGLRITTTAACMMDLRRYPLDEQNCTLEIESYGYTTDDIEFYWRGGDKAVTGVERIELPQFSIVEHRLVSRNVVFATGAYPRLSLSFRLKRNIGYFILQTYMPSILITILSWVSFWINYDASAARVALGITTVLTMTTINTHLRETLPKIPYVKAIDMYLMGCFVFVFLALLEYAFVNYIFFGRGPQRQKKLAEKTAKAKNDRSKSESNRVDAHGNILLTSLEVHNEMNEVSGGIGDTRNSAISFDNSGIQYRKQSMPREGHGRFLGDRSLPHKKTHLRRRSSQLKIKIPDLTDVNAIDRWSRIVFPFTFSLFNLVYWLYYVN
Sequence (P18507 40-475): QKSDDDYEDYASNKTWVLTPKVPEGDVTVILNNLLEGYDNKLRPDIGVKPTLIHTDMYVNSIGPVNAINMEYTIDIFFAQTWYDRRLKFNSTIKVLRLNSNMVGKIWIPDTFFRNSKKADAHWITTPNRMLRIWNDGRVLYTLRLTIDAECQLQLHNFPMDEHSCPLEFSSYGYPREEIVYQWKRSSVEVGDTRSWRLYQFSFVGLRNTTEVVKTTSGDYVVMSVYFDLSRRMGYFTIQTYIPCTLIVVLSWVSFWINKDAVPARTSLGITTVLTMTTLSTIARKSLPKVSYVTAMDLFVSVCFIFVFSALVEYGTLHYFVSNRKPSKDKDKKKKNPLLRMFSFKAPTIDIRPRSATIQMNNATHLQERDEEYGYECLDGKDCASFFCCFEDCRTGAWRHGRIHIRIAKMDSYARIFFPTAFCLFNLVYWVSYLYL
ASSAY PROCEDURE: Two-electrode voltage clamp electrophysiology in Xenopus oocytes expressing GABAA receptors (modulation of GABA EC20 current)
Type: cell-based
SETTINGS: Table 1; Xenopus oocytes, GABA EC20, test compound at approximatively 30 fold its Ki
MEASURED QUANTITY: Fold increase h-GABA-A α5β3γ2 oocyte
Numbers only.

These recorded examples may help you get a feel for the data.
| CHEMICAL STRING | ASSAY TARGET | Fold increase h-GABA-A α5β3γ2 oocyte |
| --- | --- | --- |
| Cc1nnn(-c2ccc(Cl)cc2F)c1Cn1ncc(N2CCO[C@H](C)C2)cc1=O | h-GABA-A α5β3γ2 (Homo sapiens, UniProt P18507+P31644) | 2.06 |
| CCn1nnc(-c2ccc(Cl)cc2F)c1Cn1ncc(N2CC(OC(F)F)C2)cc1=O | h-GABA-A α5β3γ2 (Homo sapiens, UniProt P18507+P31644) | 2.26 |
| CCn1nnc(-c2ccc(Cl)cc2F)c1Cn1ncc(N2CCN(C(C)C)[C@@H](C)C2)cc1=O | h-GABA-A α5β3γ2 (Homo sapiens, UniProt P18507+P31644) | 2.59 |

Exercise: // returns reported Fold increase h-GABA-A α5β3γ2 oocyte for input Cn1nnc(-c2ccc(Cl)cc2F)c1Cn1ncc(N2CC(OCC(F)(F)F)C2)cc1=O
Solution: 1.67
